system: K562; assay: NCI tumour cell line growth inhibition, 48 h
Activity calls are given as the source filed them. No stated cut-off is given here; in the data, active = GI50 up to about 1.1 µM and inactive = higher.
Result category, one only: class 1 = active, class 0 = inactive

compound="CC1NOC(NS(=O)(=O)c2ccc(/N=N/c3c(O)c(C(=O)O)cc4ccccc34)cc2)C1C (stereo unspecified)" category="class 0"
compound=CCCCOCCOCCOC1=C(Cl)C(=O)c2c(O)ccc(O)c2C1=O category="class 1"
compound=O=c1c2cc(-c3ccccc3)cnc2sn1-c1ccc(Oc2ccccc2)cc1 category="class 0"
compound=Cc1nnc(N/N=C2\C(=O)Nc3ccccc32)n1N category="class 0"
compound="CC(=O)C1C(=O)C(C(C)=O)C2C3C=CC(C3)C12 (stereo unspecified)" category="class 0"

Called result for O=C(C1OC1c1ccc(O)cc1)C12CC3CC(CC(C3)C1)C2 (stereo unspecified) class 0

Called result for CC(=O)O[C@H]1C(=O)[C@@]2(C)C(C(OC(=O)c3ccccc3)[C@]3(O)CC(OC(=O)C(O)C(NC(=O)c4cccc(Cl)c4)c4ccccc4)C(C)=C1C3(C)C)[C@]1(OC(C)=O)CO[C@@H]1C[C@@H]2O (stereo partly specified) class 1
